target desc: Carbonic anhydrase 1 (Homo sapiens) (UniProt P00915)
Sequence (P00915 2-261 limits assumed): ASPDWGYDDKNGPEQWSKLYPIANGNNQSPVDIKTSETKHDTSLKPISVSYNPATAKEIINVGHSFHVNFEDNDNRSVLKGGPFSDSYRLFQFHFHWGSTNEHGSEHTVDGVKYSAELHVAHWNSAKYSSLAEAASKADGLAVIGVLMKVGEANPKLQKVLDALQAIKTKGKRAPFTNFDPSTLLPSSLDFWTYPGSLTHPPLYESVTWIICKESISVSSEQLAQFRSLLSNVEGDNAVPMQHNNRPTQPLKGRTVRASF
assay notes: Activation of human cytosolic carbonic anhydrase 1 preincubated for 15 mins by stopped-flow CO2 hydration assay
measured parameter: KA (µM)
Respond with the bare value in µM.

Below, 6 compounds whose answers are already recorded.
{"columns": ["test smiles", "recorded result"],
 "data": [
  ["CC(C)(C)OC(=O)NCCc1nc[nH]c1Cl", 16.5],
  ["CC(C)(C)OC(=O)NCCc1nc(Br)[nH]c1Br", 7.1],
  ["CC(C)(C)OC(=O)NCCc1nc(I)[nH]c1I", 29.3],
  ["CC(C)(C)OC(=O)NCCc1nc(Cl)[nH]c1Cl", 5.4],
  ["CC(C)(C)OC(=O)NCCc1nc[nH]c1I", 12.1],
  ["NCCc1nc[nH]c1Br", 0.012]
]}

Qu. Note KA for the compound shown: `NCCc1nc(I)[nH]c1I`
Ans. 0.0009

Qu. Note KA for the compound shown: `CC(C)(C)OC(=O)NCCc1nc[nH]c1Br`
Ans. 13.3

Qu. Note KA for the compound shown: `NCCc1nc(Cl)[nH]c1Cl`
Ans. 0.021

Qu. Note KA for the compound shown: `NCCc1nc(Br)[nH]c1Br`
Ans. 0.015

Qu. Note KA for the compound shown: `NCCc1nc[nH]c1Cl`
Ans. 0.018

Qu. Note KA for the compound shown: `NCCc1nc[nH]c1I`
Ans. 0.0007

###

We begin with a simple list: items and their reported log10(KA).
target desc: Carbonic anhydrase 2 (Homo sapiens) (UniProt P00918)
assay notes: Activation of human cytosolic carbonic anhydrase 2 preincubated for 15 mins by stopped-flow CO2 hydration assay
Values are log10 of KA in µM.

{"columns": ["test smiles", "target desc", "log10(KA)"],
 "data": [
  ["NCCc1nc(I)[nH]c1I", "Carbonic anhydrase 2 (Homo sapiens) (UniProt P00918)", -1.19]
]}

Qu. Note log10(KA) for the compound shown: `NCCc1nc[nH]c1Br`
Ans. -2.10

Qu. Note log10(KA) for the compound shown: `CC(C)(C)OC(=O)NCCc1nc[nH]c1I`
Ans. 1.56

Qu. Note log10(KA) for the compound shown: `CC(C)(C)OC(=O)NCCc1nc(Cl)[nH]c1Cl`
Ans. 1.70

###

target desc: Carbonic anhydrase 2 (Homo sapiens)
assay notes: Activation of human cytosolic carbonic anhydrase 2 preincubated for 15 mins by stopped-flow CO2 hydration assay
measured parameter: log10 of KA (log10 of the value in µM)
Values are log10 of KA in µM.

{"columns": ["test smiles", "log10 of KA"],
 "data": [
  ["CC(C)(C)OC(=O)NCCc1nc[nH]c1Cl", 1.39]
]}

Qu. Note log10 of KA for the compound shown: `CC(C)(C)OC(=O)NCCc1nc[nH]c1Br`
Ans. 1.45

Qu. Note log10 of KA for the compound shown: `NCCc1nc(Cl)[nH]c1Cl`
Ans. -0.94

Qu. Note log10 of KA for the compound shown: `NCCc1nc(Br)[nH]c1Br`
Ans. -1.02

Qu. Note log10 of KA for the compound shown: `NCCc1nc[nH]c1Cl`
Ans. -1.49

###

target desc: Carbonic anhydrase 2 (Homo sapiens)
assay notes: Activation of human cytosolic carbonic anhydrase 2 preincubated for 15 mins by stopped-flow CO2 hydration assay
measured parameter: KA (µM)
Respond with the bare value in µM.

{"columns": ["test smiles", "target desc", "KA / µM"],
 "data": [
  ["CC(C)(C)OC(=O)NCCc1nc(Br)[nH]c1Br", "Carbonic anhydrase 2 (Homo sapiens)", 44.5],
  ["CC(C)(C)OC(=O)NCCc1nc(I)[nH]c1I", "Carbonic anhydrase 2 (Homo sapiens)", 13.6]
]}

Now consider a different molecule.
Qu. Output reported KA of the molecule `NCCc1nc[nH]c1I` on Carbonic anhydrase 2 (Homo sapiens).
Ans. 0.001
